Tested system: Recombinant JAK1 (Amino acids 850-1154) (Homo sapiens)
Construct: Recombinant JAK1 (Amino acids 850-1154; NM_002227.2)
Sequence (P23458 850-1154): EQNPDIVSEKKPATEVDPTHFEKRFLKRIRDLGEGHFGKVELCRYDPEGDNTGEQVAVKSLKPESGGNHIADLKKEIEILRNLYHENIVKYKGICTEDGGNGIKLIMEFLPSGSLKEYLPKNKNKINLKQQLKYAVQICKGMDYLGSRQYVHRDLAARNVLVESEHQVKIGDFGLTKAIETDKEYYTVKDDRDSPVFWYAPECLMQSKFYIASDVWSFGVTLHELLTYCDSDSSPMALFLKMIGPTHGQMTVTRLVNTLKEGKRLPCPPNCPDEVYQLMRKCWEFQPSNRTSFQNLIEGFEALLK
Test protocol: Kinase-Glo Luminescent Kinase Assay, recombinant JAK1
Condition parameters: 200 μg/ml Poly Glu-Tyr (4:1), ATP 1 uM, 90 min room temperature, luminescence
Metric name: IC50

In: Notebook entry, Recombinant JAK1 (Amino acids 850-1154) (Homo sapiens) assay: IC50 of "O=S(=O)(CC(F)(F)F)N1CCN(c2ccnc3cnc4[nH]ccc4c23)CC1" = ?
Out: > 0.02 µM

In: Recall the recorded IC50 for N#CCS(=O)(=O)N1CCC(c2ccnc3cnc4[nH]ccc4c23)C1 (stereo not drawn) with Recombinant JAK1 (Amino acids 850-1154) (Homo sapiens) and state it.
Out: 0.001 to 0.02 µM

In: Request - read-out IC50 | tested on Recombinant JAK1 (Amino acids 850-1154) (Homo sapiens) | compound CC(C)/C(=N\C#N)N1CCC[C@H](c2ccnc3cnc4[nH]ccc4c23)C1 [Ex. 43A]
Out: > 0.02 µM
